Tested on: SK-MEL-28
protocol notes: NCI tumour cell line growth inhibition, 48 h
Activity calls are given as the source filed them. Rule as the data show it: active = GI50 up to about 1.1 µM and inactive = higher.
# GI50 listing for each entry below
measure name: GI50

1) C1CNCCNCCNCCN1	> 100 µM (inactive)
2) NC(=O)NC12CC3CC(CC(F)(C3)C1)C2	> 100 µM (inactive)
3) CC(=O)NC(CCCCNC(=O)OC(C)(C)C)C(=O)O (stereo not given)	> 100 µM (inactive)
4) COc1ccc(/C=C2\C[C@H]3[C@@H]4CC=C5C[C@@H](OC(C)=O)CC[C@]5(C)[C@H]4CC[C@]3(C)\C2=N\O)cc1OC	> 100 µM (inactive)
5) Cc1cc(C)nc(NS(=O)(=O)c2ccc(NNc3c4ccccc4nc4c(C(=O)Nc5ccc(S(N)(=O)=O)cc5)cccc34)cc2)n1	25.1 µM (inactive)

###

Test system: MOLT-4
protocol notes: NCI tumour cell line growth inhibition, 48 h
The source made the active and inactive calls. No stated cut-off is given here; in the data, active = GI50 up to about 1.1 µM and inactive = higher.
Outcome codes: Yes for active, No for inactive

1) OCC1c2ccccc2-n2nc(-c3ccccc3)c(O)c21 (stereo not given)	No
2) CCCCCCCCCCC(=O)CC(=O)c1c(O)cccc1O	No
3) CSc1nc2ccccc2c(=O)n1-c1cccc(C)c1	No
4) O=C(NCCCCCCNC(=O)n1cc(F)c(=O)[nH]c1=O)NCCCOCCOCCOCCOCCOCCOCCOCCOCCOCCOCCOCCOCCOCCOCCOCCOCCOCCOCCOCCOCCOCCCNC(=O)C(O)C(O)C(O)C(O)CO (stereo not given)	No
5) C1CNCCNCCNCCN1	No
6) CC(=O)CC(=O)CCCC(=O)Nc1ccc(Cl)cc1C	No
7) COC(=O)Nc1nc2cc(Oc3ccc4nc(NC(=O)OC)[nH]c4c3)ccc2[nH]1	Yes
8) NS(=O)(=O)c1ccc(NC(=O)Nc2ccccc2F)cc1	No
9) COc1ccc2c(C(=O)O)cc3cc(OC)c(OC)cc3c2c1	No
10) CC(=O)NC(CCCN(Cc1ccccc1)C(=O)N(C)N=O)C(=O)NCc1ccccc1 (stereo not given)	No

###

Tested on: UO-31
protocol notes: NCI tumour cell line growth inhibition, 48 h
Active and inactive are the calls of the source. Rule as the data show it: active = GI50 up to about 1.1 µM and inactive = higher.
measure name: GI50

1) Cc1c(NC(=O)CCl)c(=O)oc2c(C)c3occc(=O)c3cc12	10.5 µM (inactive)
2) CN(C)c1ccc(C(Cc2ccccc2)C2NC(=S)NC2=O)cc1 (centres undefined)	> 100 µM (inactive)
3) CCOP(=O)(OCC)C(C)(C)N(C)/C(F)=N/C(F)(F)F	> 100 µM (inactive)
4) CCCCCCC(CCl)c1sc(-c2csc(CCNC(=O)OC(C)(C)C)n2)nc1C(=O)OC (centres undefined)	14.9 µM (inactive)
5) CCO[C@H]1C[C@@H](c2ccccc2)[C@]2(C)C[C@H](C(=O)OC)ON2O1	> 100 µM (inactive)
6) c1cc(C[S+]2CCCC2)oc1C[S+]1CCCC1	> 100 µM (inactive)
7) CCOC(=O)c1nc2ccc(C(F)(F)F)cc2nc1Nc1ccc(OC)cc1	> 100 µM (inactive)
8) Cc1ccc(-n2cc(-c3ccc(Cl)cc3)c3c(NNC(=S)NCc4ccccc4)ncnc32)cc1	10.1 µM (inactive)
9) c1ccc(Nc2nn3c(CCCCCCCCc4nnc5sc(Nc6ccccc6)nn45)nnc3s2)cc1	22.1 µM (inactive)
10) CSc1nc2ccccc2c(=O)n1-c1cccc(C)c1	0.364 µM (active)
11) O=[N+]([O-])C(=C(Nc1ccccc1)Nc1ccccc1)/C(Cl)=C(\Cl)Br	10.1 µM (inactive)
12) COc1ccc(/C(Cl)=C/c2ccc(Cl)c(Cl)c2)cc1	26.5 µM (inactive)
13) O=C1OC(C2Cc3ccc4c(c3C2=O)CCC4)c2ccccc21 (centres undefined)	45.4 µM (inactive)
14) C/C=C/[C@H](O[Si](C)(C)C(C)(C)C)[C@@H](O)/C=C/C(=O)OCC	24 µM (inactive)
15) O=C(O)CNC(=O)c1ccc(-c2ccccc2)cc1	> 100 µM (inactive)
16) C[N+](C)(CCO)CCN1c2ccccc2Sc2ccccc21	3.52 µM (inactive)
17) CC(=O)Oc1ccc2[nH]c3c(C)c4cccc-4ccc3c2c1	1.76 µM (inactive)
18) NS(=O)(=O)c1ccc(NC(=O)Nc2ccccc2F)cc1	41.7 µM (inactive)
19) Cc1nc2c(=O)[nH]c(=O)nc-2n(CCO)c1C	> 100 µM (inactive)
20) NC(=O)NOCC1NC(=O)NC1=O (centres undefined)	> 100 µM (inactive)
21) FC1OC2OC1C(OCc1ccccc1)C(OCc1ccccc1)C2OCc1ccccc1 (centres undefined)	36.1 µM (inactive)
22) Cc1c(-c2ccc(O)c(O)c2)oc(=O)c2c(O)cccc12	11.1 µM (inactive)
23) O=S(=O)(O)CS(=O)(=O)OCCCl	> 100 µM (inactive)
24) [N-]=[N+]=CC(=O)CCC(N)C(=O)O (centres undefined)	5.12 µM (inactive)
25) CC(C)(C)[Si](C)(C)OCC1OC(n2ccc(=O)[nH]c2=O)C(O[Si](C)(C)C(C)(C)C)[C@]12O[C@@H]2CO (some centres undefined)	8.85 µM (inactive)
26) N#C/C(C(=O)NCc1ccccc1)=C(/N)N1CCCC1	46.3 µM (inactive)
27) N=C1/C(=C/c2ccco2)C(=O)N=C2SC=NN12	> 100 µM (inactive)
28) Cn1c2ccccc2c(=S)c2ccccc21	> 100 µM (inactive)
29) COC(=O)c1cc2c(cc1Cl)Sc1nnc(Nc3ccccc3)n1S2(=O)=O	2.48 µM (inactive)
30) CCOC(=O)Nc1nc(-c2ccccc2)c(C)s1	60 µM (inactive)
31) O=C1CS(=O)(=O)C(c2cccc(Oc3ccccc3)c2)N1C1CC1 (centres undefined)	27.6 µM (inactive)
32) COc1ccc(-n2sc3ncc(-c4ccccc4)cc3c2=O)cc1	21.7 µM (inactive)
33) CCN(CC)CCCNc1c2cc(OC)ccc2nc2cccc([N+](=O)[O-])c12	0.0402 µM (active)
34) CCOC(=O)C(NS(=O)(=O)c1ccccc1)(C(F)(F)F)P(=O)(OCC(C)C)OCC(C)C (centres undefined)	98.2 µM (inactive)
